The following compounds were reported with IC50 values on UniProtKB P47712 in different studies.
# strict inequality: IC50 < 400 nM yields criterion met, everything else yields criterion not met

compound	discrete-label
CC(C)CN(C1CC(CNC(=O)c2ccc(C=C3SC(=O)NC3=O)cc2)N(C(=O)c2cc(F)ccc2C(=O)c2ccc(F)cc2F)C1)C(c1ccccc1)c1ccccc1 (stereo not drawn)	criterion met
CC(=O)Nc1ccccc1C(=O)c1ccccc1C(=O)N1C[C@H](OCc2ccccc2-c2ccccc2)C[C@H]1CNC(=O)c1ccc(/C=C2\SC(=O)NC2=O)cc1	criterion not met
O=C1NC(=O)/C(=C/c2ccc(C(=O)NC[C@@H]3C[C@@H](OCc4ccccc4)CN3C(=O)c3ccccc3C(=O)c3ccccc3)cc2)S1	criterion not met
COc1ccc(S(=O)(=O)NCCc2c(CCOc3ccc(C(=O)O)cc3)c3cc(Cl)ccc3n2C(c2ccccc2)c2ccccc2)c2nonc12	criterion met
O=C(/C=C/C#C/C=C1\SC(=O)NC1=O)NC[C@@H]1C[C@@H](OCc2ccccc2-c2ccccc2)CN1C(=O)c1ccccc1C(=O)c1ccc(F)cc1	criterion met

Okay, now this compound:
Exam item: Please let me know if `O=C1NC(=S)S/C1=C\c1cn(NC(=O)[C@@H]2C[C@H](SCc3ccccc3)CN2C(=O)c2ccccc2)c2ccccc12` shows IC50 below 400 nM.
Marked response: criterion not met

---

The following compounds were reported with log10 IC50 values on Cytosolic phospholipase A2 (Homo sapiens, UniProt P47712) in different studies.
// units: nM (pre-log); metric: IC50; scale: log10

> print(dat)
                           molecular.string  measured.metric  test.result
1  O=S(=O)(NCCc1c(CCOc2ccc(-c3nn[nH]n3)cc2)c2cc(Cl)ccc2n1C(c1ccccc1)c1ccccc1)c1ccccc1Cl       log10 IC50         3.26
2  CS[C@H]1C[C@@H](C(=O)Nc2ccc(/C=C3\SC(=S)NC3=O)cc2)N(S(=O)(=O)c2ccc(N(C)C)cc2)C1       log10 IC50         4.23
3  Cc1c(Cl)cccc1S(=O)(=O)NCCc1c(CCCc2ccc(C(=O)O)cc2)c2cc(Cl)ccc2n1C(c1ccccc1)c1ccccc1       log10 IC50         2.51
4  O=C1NC(=O)/C(=C/c2ccc(C(=O)NC[C@@H]3C[C@@H](OCc4ccccc4-c4ccccc4)CN3C(=O)c3ccccc3C(=O)c3ccoc3)cc2)S1       log10 IC50         3.20
5  O=C(O)c1ccc(CCCc2c(CCNS(=O)(=O)c3ccc(Cl)c4nonc34)n(C(c3ccccc3)c3ccccc3)c3ccc(Cl)cc23)cc1       log10 IC50         2.54

Turning now to a further record.
Lab book: log10 IC50 of `O=C(O)c1ccc(CCCc2c(CCNS(=O)(=O)c3ccccc3Br)n(C(c3ccccc3)c3ccccc3)c3ccc(Cl)cc23)cc1` noted as 2.30

---

The following compounds were reported with IC50 values on Cytosolic phospholipase A2 (Homo sapiens, UniProt P47712) in different studies.
# strict inequality: IC50 < 200 nM yields fulfilled, everything else yields not fulfilled

Sample answers from the record:
compound	discrete-label
O=C1NC(=O)/C(=C/c2ccc(NC(=O)[C@@H]3C[C@@H](SCc4ccccc4-c4ccccc4)CN3C(=O)c3ccccc3C(=O)c3ccc(F)cc3)cc2)S1	fulfilled
CN(C(c1ccccc1)c1ccccc1)[C@@H]1C[C@@H](CNC(=O)c2ccc(/C=C3\SC(=O)NC3=O)cc2)N(C(=O)c2ccccc2C(=O)c2ccc(F)cc2)C1	fulfilled
COc1cccc(CS(=O)(=O)NCCc2c(CCCc3ccc(C(=O)O)cc3)c3cc(Cl)ccc3n2C(c2ccccc2)c2ccccc2)c1	fulfilled
NCc1ccccc1S(=O)(=O)NCCc1c(CCOc2ccc(C(=O)O)cc2)c2cc(Cl)ccc2n1C(c1ccccc1)c1ccccc1	not fulfilled
O=C(O)c1ccc(OCCc2c(CCNS(=O)(=O)CCN3CCCC3)n(C(c3ccccc3)c3ccccc3)c3ccc(Cl)cc23)cc1	not fulfilled
CC(C)CN(C1CC(CNC(=O)c2ccc(C=C3SC(=O)NC3=O)cc2)N(C(=O)c2cccc(F)c2C(=O)c2ccc(F)cc2F)C1)C(c1ccccc1)c1ccccc1 (stereo not drawn)	fulfilled

Exam item: Please let me know if `O=C(O)c1ccc(CCCc2c(CCNS(=O)(=O)c3ccccc3F)n(C(c3ccccc3)c3ccccc3)c3ccc(Cl)cc23)cc1` shows IC50 below 200 nM.
Marked response: fulfilled

Exam item: Please let me know if O=C1NC(=O)/C(=C/c2ccc(C(=O)NC[C@@H]3CC(OCc4ccc(F)cc4F)CN3S(=O)(=O)c3ccc(Cc4ccccc4)cc3)cc2)S1 (stereo partly drawn) shows IC50 below 200 nM.
Marked response: not fulfilled

Exam item: Please let me know if O=C1NC(=O)C(=Cc2ccc(C(=O)NCC3CC(SCc4c(-c5ccccc5)cccc4-c4ccccc4)CN3C(=O)c3ccccc3C(=O)c3ccc(F)cc3F)cc2)S1 (stereo not drawn) shows IC50 below 200 nM.
Marked response: fulfilled

Exam item: Please let me know if `O=C(O)c1ccc(OCCc2c(CCNS(=O)(=O)Cc3cccc(C(F)(F)F)c3)n(C(c3ccccc3)c3ccccc3)c3ccc(Cl)cc23)cc1` shows IC50 below 200 nM.
Marked response: not fulfilled

---

The following compounds were reported with IC50 values on Cytosolic phospholipase A2 (Homo sapiens) in different studies.

> print(dat)
                           molecular.string  test.result
1  O=C(O)c1ccc(CCCc2c(CCNS(=O)(=O)c3ccccc3C(F)(F)F)n(C(c3ccccc3)c3ccccc3)c3ccc(Cl)cc23)cc1      0.24 µM
2  CS[C@H]1C[C@@H](C(=O)Nc2ccc(C=C3SC(=O)NC3=O)cc2)N(C(=O)Cc2ccc(Br)cc2)C1        18 µM
3  Cc1ccc(C(=O)c2ccccc2C(=O)N2C[C@H](OCc3ccccc3-c3ccccc3)C[C@H]2CNC(=O)c2ccc(/C=C3\SC(=S)NC3=O)cc2)cc1      0.43 µM
4  O=C1NC(=O)/C(=C/c2ccc(C(=O)NC[C@@H]3C[C@@H](CCc4ccccc4-c4ccccc4)CN3C(=O)c3ccccc3C(=O)c3ccc(F)cc3)cc2)S1     0.055 µM
5  COc1cc(CS[C@H]2C[C@@H](C(=O)Nc3ccc(/C=C4\SC(=O)NC4=O)cc3)N(S(=O)(=O)c3ccc(-c4ccccc4)cc3)C2)cc(OC)c1OC         7 µM

Turning now to a further record.
Lab book: IC50 of `O=C(O)c1cccc(OCCc2c(CCNS(=O)(=O)Cc3ccccc3)n(C(c3ccccc3)c3ccccc3)c3ccc(Cl)cc23)c1` noted as 0.5 µM

---

The following compounds were reported with pIC50 values on Cytosolic phospholipase A2 (Homo sapiens, UniProt P47712) in different studies.
Give bare numbers, as −log10 of the molar value.

Example results:
> print(dat)
                                    compound  measured.metric  test.result
 1  O=C1NC(=O)/C(=C/c2ccc(C(=O)NC[C@@H]3C[C@@H](Oc4ccc5cc(-c6ccccc6)ccc5c4)CN3C(=O)c3ccccc3C(=O)c3ccc(F)cc3)cc2)S1            pIC50         7.70
 2  CC(=O)N1C(C)CN(CCS(=O)(=O)NCCc2c(CCOc3ccc(C(=O)O)cc3)c3cc(Cl)ccc3n2C(c2ccccc2)c2ccccc2)CC1C (centres unmarked)            pIC50         5.89
 3  O=C1NC(=O)/C(=C/c2ccc(S(=O)(=O)NC[C@@H]3C[C@@H](SCc4ccccc4-c4ccccc4)CN3C(=O)c3ccccc3C(=O)c3ccc(F)cc3)s2)S1            pIC50         6.62
 4  O=C(O)c1ccc(OCCc2c(CCNS(=O)(=O)C[S+]([O-])c3ccc(Cl)c(Cl)c3)n(C(c3ccccc3)c3ccccc3)c3ccc(Cl)cc23)cc1 (centres unmarked)            pIC50         6.05
 5  O=C1NC(=O)C(=Cc2ccc(NC(=O)[C@@H]3C[C@H](SCc4ccc5ccccc5c4)CN3C(=O)c3ccccc3)cc2)S1            pIC50         5.44
 6  O=C(C[C@@H]1C[C@@H](OCc2ccccc2-c2ccccc2)CN1C(=O)c1ccccc1C(=O)c1ccc(F)cc1)Nc1ccc(/C=C2\SC(=S)NC2=O)cc1            pIC50         6.38
 7  COC(=O)c1cc(C=C2SC(=O)NC2=O)cc(NC(=O)C2CC(OC(c3ccccc3)c3ccccc3)CN2C(=O)c2ccccc2)c1 (centres unmarked)            pIC50         5.49
 8  Cc1c(C(c2ccccc2)c2ccccc2)c2cc(Cl)ccc2n1C/C=C/COc1ccc(C(=O)O)cc1            pIC50         5.96
 9  CCc1cccc(CC)c1S(=O)(=O)NCCc1c(CCOc2ccc(C(=O)O)cc2)c2cc(Cl)ccc2n1C(c1ccccc1)c1ccccc1            pIC50         7.00
10  O=C1NC(=O)/C(=C/c2ccc(C(=O)NC[C@@H]3C[C@@H](OC(c4ccccc4)c4ccccc4)CN3C(=O)c3ccccc3C(=O)c3ccc(F)cc3)cc2)S1            pIC50         7.07

I need pIC50 for every entry listed below, if you could help.
1. CCCCS(=O)(=O)N1C[C@@H](SCc2ccccc2)C[C@H]1C(=O)Nc1ccc(C=C2SC(=S)NC2=O)cc1
2. N#Cc1ccccc1CS(=O)(=O)NCCc1c(CCOc2ccc(C(=O)O)cc2)c2cc(Cl)ccc2n1C(c1ccccc1)c1ccccc1
3. O=C(O)c1ccc(OCCc2c(CCNS(=O)(=O)c3ccccc3Cl)n(C(c3ccccc3)c3ccccc3)c3ccc(Cl)cc23)cc1F
4. CC(C)N(Cc1ccccc1)[C@@H]1C[C@@H](CNC(=O)c2ccc(/C=C3\SC(=S)NC3=O)cc2)N(C(=O)c2ccccc2C(=O)c2ccc(F)cc2)C1

Marked response:
1: 5.32; 2: 6.82; 3: 6.28; 4: 6.85

I need pIC50 for every entry listed below, if you could help.
1. COc1cccc(-c2cccc3ccccc23)c1O[C@@H]1C[C@@H](CNC(=O)c2ccc(/C=C3\SC(=O)NC3=O)cc2)N(C(=O)c2ccccc2C(=O)c2ccc(F)cc2)C1
2. CS[C@H]1C[C@@H](C(=O)Nc2ccc(C=C3SC(=S)NC3=O)cc2)N(C(=O)CCc2ccccc2)C1
3. O=C1NC(=O)/C(=C/c2ccc(C(=O)NC[C@@H]3C[C@@H](Oc4ccccc4-c4cccc(-c5ccccc5)c4)CN3C(=O)c3ccccc3C(=O)c3ccc(F)cc3)cc2)S1

Marked response:
1. 8.10
2. 4.68
3. 7.19

I need pIC50 for every entry listed below, if you could help.
1. CC(C)CN(Cc1ccccc1-c1ccccc1)[C@@H]1C[C@@H](CNC(=O)/C=C/c2ccc(/C=C3\SC(=O)NC3=O)cc2)N(C(=O)c2ccccc2C(=O)c2ccc(F)cc2)C1
2. O=C(O)CCc1ccc(S(=O)(=O)CCc2c(CCNS(=O)(=O)Cc3ccccc3Cl)n(C(c3ccccc3)c3ccccc3)c3ccc(Cl)cc23)cc1
3. CC(C)CN(C1CC(CNC(=O)c2ccc(C=C3SC(=O)NC3=O)cc2)N(C(=O)c2ccccc2C(=O)c2cccc(F)c2)C1)C(c1ccccc1)c1ccccc1 (centres unmarked)
4. CC(CCl)c1ccccc1S(=O)(=O)NCCc1c(CCCc2ccc(C(=O)O)cc2)c2cc(Cl)ccc2n1C(c1ccccc1)c1ccccc1 (centres unmarked)
5. Nc1ccccc1CS(=O)(=O)NCCc1c(CCCc2ccc(C(=O)O)cc2)c2cc(Cl)ccc2n1C(c1ccccc1)c1ccccc1

Marked response:
[8.51, 6.89, 7.03, 6.22, 6.82]

Cytosolic phospholipase A2 (Homo sapiens, UniProt P47712) data for `O=C(O)c1ccc(CCCc2c(CCNS(=O)(=O)Cc3cccnc3)n(C(c3ccccc3)c3ccccc3)c3ccc(Cl)cc23)cc1` ; its pIC50: 6.42
